- TARGET_OR_SYSTEM: T1, DIDO1 PHD-finger
- T1 chain: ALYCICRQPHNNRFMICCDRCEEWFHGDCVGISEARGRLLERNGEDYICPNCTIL
- ASSAY_NAME: BLI
Bridge positions count the residues as written; N and C are the ends. Ends that are not written are not given here.
QUANTITY_MEASURED: Kd

-- ask Give reported Kd value for {CH2CO}-YYLTHPYPSVFRTC (thioether N-14) [OC9, de novo cyclic peptide from mRNA display]
-- reply > 1 µM
